These entries and their values trace back to patent US6998239B1.

Target: T1, CCX CKR (Homo sapiens, UniProt Q9NPB9)
T1 construct: Full length CCX CKR expression constructs were made in pIRESpuro expression vector; expressed in transfected cells
T1 sequence (Q9NPB9 1-350): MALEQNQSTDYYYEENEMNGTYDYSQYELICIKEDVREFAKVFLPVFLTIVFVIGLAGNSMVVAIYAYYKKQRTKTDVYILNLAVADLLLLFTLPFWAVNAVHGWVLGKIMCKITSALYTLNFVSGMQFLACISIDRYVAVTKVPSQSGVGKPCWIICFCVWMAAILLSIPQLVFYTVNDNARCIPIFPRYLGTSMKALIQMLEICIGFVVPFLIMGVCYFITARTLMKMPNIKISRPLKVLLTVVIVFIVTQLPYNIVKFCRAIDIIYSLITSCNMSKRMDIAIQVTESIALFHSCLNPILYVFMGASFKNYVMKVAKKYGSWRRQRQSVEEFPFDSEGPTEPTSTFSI
Test: Radioligand binding competition with Scatchard transformation (binding constants)
Conditions: summary statement
measurement_type: Affinity class of CCX CKR ligands (summary of Examples 4-6)

vMIPII: virally-encoded chemokine from the human Kaposi's sarcoma herpesvirus HHV8 (protein) LGASWHRPDKCCLGYQKRPLPQVLLSSWYPTSQLCSKPGVIFLTKRGRQVCADKSKDWVKKLMQQLPVTAR = lower affinity
murine CTACK: murine chemokine CTACK, also referred to as CCL27, ALP, ILC, and ESkine (protein) LPLPSSTSCCTQLYRQPLPSRLLRRIVHMELQEADGDCHLQAVVLHLARRSVCVHPQNRSLARWLERQGKRLQGTVPSLNLVLQKKMYSHPQQQN = high affinity
TECK: thymus expressed chemokine, recombinant (protein) QGVFEDCCLAYHYPIGWAVLRRAWTYRIQEVSGSCNLPAAIFYLPKRHRKVCGNPKSREVQRAMKLLDARNKVFAKLHHNTQTFQAGPHAVKKLSSGNSKLSSSKFSNPISSSKRNVSLLISANSGL = high affinity
SLC: secondary lymphoid-tissue chemokine, recombinant (protein) SDGGAQDCCLKYSQRKIPAKVVRSYRKQEPSLGCSIPAILFLPRKRSQAELCADPKELWVQQLMQHLDKTPSPQKPAQGCRKDRGASKTGKKGKGSKGCKRTERSQTPKGP = high affinity

Proceed to the following item.
Given item mMIP-1gamma: murine chemokine MIP-1γ (CCF18) (protein) QITHATETKEVQSSLKAQQGLEIEMFHMGFQDSSDCCLSYNSRIQCSRFIGYFPTSGGCTRPGIIFISKRGFQVCANPSDRRVQRCIERLEQNSQPRTYKQ , the value recorded as its Affinity class of CCX CKR ligands (summary of Examples 4-6) is lower affinity
